test: Polarity measured as dielectric constant with a dielectric constant meter; assay type: physicochemical; settings: solvents, at about 20° C.
Please go through the items and note down their Dielectric constant.
Number, no unit, nothing else.

Give the reported Dielectric constant for this molecule. `CCO`
28.3

Using the record for CC(O)CO (stereo not shown) , state its measured Dielectric constant.
28.7

Recall and state the measured Dielectric constant for `O` .
79.2

Check the records and state Dielectric constant for `CC(C)O`
20.8

Tell me measured Dielectric constant for `CC(=O)OCC(COC(C)=O)OC(C)=O` please.
7.0

Give the measured Dielectric constant for `OCc1ccccc1`
13.8

Retrieve Dielectric constant measured for `OCC(O)CO` and print it.
46.1
